Value source: the supplement of paper PMC3334620

# SYSTEM_UNDER_TEST: Zap1 (UniProt P47043)
# Sequence: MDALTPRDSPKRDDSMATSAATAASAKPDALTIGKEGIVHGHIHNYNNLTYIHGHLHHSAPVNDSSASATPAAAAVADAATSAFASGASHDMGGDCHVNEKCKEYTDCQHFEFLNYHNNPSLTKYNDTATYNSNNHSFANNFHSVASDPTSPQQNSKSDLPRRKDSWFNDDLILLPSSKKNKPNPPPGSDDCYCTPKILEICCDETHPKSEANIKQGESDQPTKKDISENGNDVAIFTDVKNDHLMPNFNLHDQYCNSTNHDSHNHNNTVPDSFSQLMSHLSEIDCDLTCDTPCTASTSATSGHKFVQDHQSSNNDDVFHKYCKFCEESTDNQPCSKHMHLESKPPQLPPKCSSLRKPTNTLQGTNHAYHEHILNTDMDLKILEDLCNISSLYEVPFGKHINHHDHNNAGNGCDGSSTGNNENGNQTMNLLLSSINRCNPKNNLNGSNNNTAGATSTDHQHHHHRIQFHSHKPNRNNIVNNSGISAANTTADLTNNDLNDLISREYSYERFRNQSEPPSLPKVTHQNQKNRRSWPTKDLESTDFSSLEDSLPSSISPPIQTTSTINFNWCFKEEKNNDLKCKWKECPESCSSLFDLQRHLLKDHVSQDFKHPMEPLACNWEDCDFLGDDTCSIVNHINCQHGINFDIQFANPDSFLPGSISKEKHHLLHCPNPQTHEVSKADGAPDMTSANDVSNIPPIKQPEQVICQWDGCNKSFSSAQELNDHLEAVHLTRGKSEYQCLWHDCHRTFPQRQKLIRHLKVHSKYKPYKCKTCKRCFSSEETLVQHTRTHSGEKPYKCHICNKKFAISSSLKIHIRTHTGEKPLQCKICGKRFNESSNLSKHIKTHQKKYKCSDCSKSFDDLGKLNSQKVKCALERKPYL
# ASSAY_INFO: PBM E-score (8-mer binding enrichment) (E-score (-0.5 to 0.5)); higher = stronger / more preferred TF binding
# CONDITIONS: protein concentration: 200 nM; construct: GST-full length
Whole data set: some 33,000 sequences, median “E-score (-0.5 to 0.5)” near -0.021, cut for the highest 2% near 0.32. Many of the other results were omitted from the sample, so the highest values are more common in it than they were.
ASSAY_READOUT: PBM E-score
Give bare numbers.

Illustrative cases are given below, each with its answer.
SEQ: ATTGAATG
PBM E-score: 0.113
--
SEQ: CACCCACA
PBM E-score: 0.168
--
SEQ: AACTAAAC
PBM E-score: 0.181
--
SEQ: AACCCACG
PBM E-score: 0.156
--
SEQ: CCTTGACG
PBM E-score: 0.115

Please supply PBM E-score for each of the following items, keeping them in order.
1. TTCTTCAA
2. CTGAGCCC

OUT:
[0.0925, -0.179]
